FYI, the data here is from ChEMBL document CHEMBL4152334.

Assay system: Trans-sialidase (Trypanosoma cruzi)
Method: Inhibition of Trypanosoma cruzi trans-sialidase at 1 mM assessed as reduction of 3'-sialyl-N-acetyllactosamine formation at 1 mM using N-acetyllactosamine as substrate and 3-sialyl-lactose as donor incubated for 15 mins by HPAEC-PAD relative to control
Could you label it 1.0 if measured inhibition is 20% or higher, and 0.0 otherwise?

1) O=C(O)CC(c1ccc(O)cc1)N1C(=O)c2ccc(C(=O)O)cc2C1=O (configuration not stated); 1.0
2) Cc1ccc2c(c1)C(=O)N(C(CC(=O)O)c1ccco1)C2=O (configuration not stated); 1.0
3) O=C(O)CC(c1ccco1)N1C(=O)c2ccccc2C1=O (configuration not stated); 1.0
4) O=C(O)CC(c1ccc2ccccc2c1)N1C(=O)c2ccccc2C1=O (configuration not stated); 1.0
5) O=C(O)CC(c1ccc(O)cc1)N1C(=O)c2ccccc2C1=O (configuration not stated); 0.0
6) O=C(O)CC(c1ccco1)N1C(=O)c2ccc(C(=O)O)cc2C1=O (configuration not stated); 0.0

Input: Could you please find out whether Cc1ccc2c(c1)C(=O)N(C(CC(=O)O)c1ccc(O)cc1)C2=O (configuration not stated) has inhibition that meets 20% or exceeds it?
Output: 1.0

Input: Could you please find out whether NC(CC(=O)O)c1ccc(O)cc1 (configuration not stated) has inhibition that meets 20% or exceeds it?
Output: 0.0

Input: Could you please find out whether NC(CC(=O)O)c1ccco1 (configuration not stated) has inhibition that meets 20% or exceeds it?
Output: 0.0

Input: Could you please find out whether Cc1ccc2c(c1)C(=O)N(C(CC(=O)O)c1ccc3ccccc3c1)C2=O (configuration not stated) has inhibition that meets 20% or exceeds it?
Output: 1.0

Input: Could you please find out whether NC(CC(=O)O)c1ccc2ccccc2c1 (configuration not stated) has inhibition that meets 20% or exceeds it?
Output: 0.0

Input: Could you please find out whether O=C(O)CC(c1ccc2ccccc2c1)N1C(=O)c2ccc(C(=O)O)cc2C1=O (configuration not stated) has inhibition that meets 20% or exceeds it?
Output: 1.0
